Source listed as ChEMBL document CHEMBL4364271.

System: Streptococcus pneumoniae D39
Assay: Agonist activity at ComD1 receptor in Streptococcus pneumoniae D39 harboring pcomX/lacZ reporter gene at 10 uM incubated for 30 mins by ONPG based beta-galactosidase assay relative to native CSP1
The source made the active and inactive calls. The rule behind the calls is not given here. Non-standard residues stand in square brackets, D forms with d. Residues, ends and D or L forms follow the SMILES beside them. NMeI = CC[C@H](C)[C@H](NC)C(=O)O; NMeM = CN[C@@H](CCSC)C(=O)O

# Compound, Activity
data = [
    ("CC[C@H](C)[C@H](NC(=O)[C@H](CCCNC(=N)N)NC(=O)[C@H](CO)NC(=O)[C@H]([C@@H](C)CC)N(C)C(=O)[C@H](CCCNC(=N)N)NC(=O)[C@H](CCSC)NC(=O)[C@@H](N)CCC(=O)O)C(=O)N[C@H](C(=O)N[C@@H](CC(C)C)C(=O)N[C@@H](CC(=O)O)C(=O)N[C@@H](Cc1ccccc1)C(=O)N[C@@H](CC(C)C)C(=O)N[C@@H](Cc1ccccc1)C(=O)O)[C@@H](C)CC (H-EMR[NMeI]SRIILDFLF-OH)", "inactive"),
    ("CC[C@H](C)[C@H](NC(=O)[C@H](Cc1ccccc1)NC(=O)[C@H](CC(=O)O)NC(=O)[C@H](CCCNC(=N)N)NC(=O)[C@H](Cc1ccccc1)NC(=O)[C@H](Cc1ccccc1)NC(=O)[C@H](CCCCN)NC(=O)[C@H](CO)NC(=O)[C@H](CC(C)C)NC(=O)[C@H](CCCNC(=N)N)NC(=O)[C@H](CCSC)N(C)C(=O)[C@@H](N)CCC(=O)O)C(=O)N[C@@H](CC(C)C)C(=O)N[C@@H](CCC(N)=O)C(=O)N[C@@H](CCCNC(=N)N)C(=O)O (H-E[NMeM]RLSKFFRDFILQR-OH)", "inactive"),
]
